Quick reference: growth yield of the listed items.
tested on: Trichoderma virens ATCC 9645; experiment: growth yield (OD600) with compound + IPBC relative to untreated control; higher = less growth inhibition; conditions: compound concentration: 100 uM; IPBC concentration: 200 ng/ml; 40 h
Where a name gives a salt, the structure may show the parent alone. The campaign covered roughly 1,300 compounds. About 130 (10%) showed an effect of 50% or more. The sample as a whole holds a higher share of strong results than the screen did.
Write the answer as a number in %, unit excluded.

{"columns": ["compound", "test_system", "unit_abbrev", "growth yield"],
 "data": [
  ["CC(CCc1ccccc1)NCC(O)c1ccc(O)c(C(N)=O)c1 (stereo unspecified) [Labetalol hydrochloride] + CCCCNC(=O)OCC#CI [3-iodo-2-propynyl butylcarbamate (IPBC)]", "Trichoderma virens ATCC 9645", "%", 73.4],
  ["NS(=O)(=O)c1cc2c(cc1Cl)NC(C(Cl)Cl)NS2(=O)=O (stereo unspecified) [Trichlormethiazide] + CCCCNC(=O)OCC#CI [3-iodo-2-propynyl butylcarbamate (IPBC)]", "Trichoderma virens ATCC 9645", "%", 97.5],
  ["CCCCCC[C@H]1C(=O)O[C@H](C)[C@H](NC(=O)c2cccc(NC=O)c2O)C(=O)O[C@@H](C)[C@@H]1OC(=O)CC(C)C [Antimycin A] + CCCCNC(=O)OCC#CI [3-iodo-2-propynyl butylcarbamate (IPBC)]", "Trichoderma virens ATCC 9645", "%", 17.6],
  ["O=C(NCCNCC(O)COc1ccc(O)cc1)N1CCOCC1 (stereo unspecified) [Xamoterol hemifumarate] + CCCCNC(=O)OCC#CI [3-iodo-2-propynyl butylcarbamate (IPBC)]", "Trichoderma virens ATCC 9645", "%", 92.4]
]}

growth yield for CCCCC[C@H](O)/C=C/[C@H]1[C@H](O)CC(=O)[C@@H]1CCCCCCC(=O)O [Alprostadil] + CCCCNC(=O)OCC#CI [3-iodo-2-propynyl butylcarbamate (IPBC)] ?
108

growth yield for N[C@@H]1C[C@H]1c1ccccc1 [Tranylcypromine hydrochloride] + CCCCNC(=O)OCC#CI [3-iodo-2-propynyl butylcarbamate (IPBC)] ?
99.6

* * *

Quick reference: growth yield of the listed items.
test system: Trichoderma virens ATCC 9645; assay: growth yield (OD600) with compound + IPBC relative to untreated control; higher = less growth inhibition; settings: compound concentration: 100 uM; IPBC concentration: 200 ng/ml; 72 h
Counter-ions that a name gives are not always drawn. Out of some 1,300 compounds screened, about 130 (10%) showed an effect of 50% or more. Shown is part of a subset that was picked to be rich in strong results.
Write the answer as a number in %, unit excluded.

{"columns": ["molecule", "parameter", "reported_value"],
 "data": [
  ["Cc1cccc(C)c1NC(=O)C1CCCCN1C (stereo not drawn) [Mepivacaine hydrochloride] + CCCCNC(=O)OCC#CI [3-iodo-2-propynyl butylcarbamate (IPBC)]", "growth yield", 96.3],
  ["Fc1ccc([C@@H]2CCNC[C@H]2COc2ccc3c(c2)OCO3)cc1 [Paroxetine Hydrochloride] + CCCCNC(=O)OCC#CI [3-iodo-2-propynyl butylcarbamate (IPBC)]", "growth yield", 92.5]
]}

growth yield for Nc1cc(C(Cl)=C(Cl)Cl)c(S(N)(=O)=O)cc1S(N)(=O)=O [Clorsulon] + CCCCNC(=O)OCC#CI [3-iodo-2-propynyl butylcarbamate (IPBC)] ?
90.8
